So I've got a bunch of molecules here, and I need their log10(IC50) values.
# system.under.test: Ba/F3 Pro B-cell line expressing TEL-human MERTK fusion domain (Homo sapiens, UniProt Q12866)
# Sequence (Q12866 587-858 limits assumed): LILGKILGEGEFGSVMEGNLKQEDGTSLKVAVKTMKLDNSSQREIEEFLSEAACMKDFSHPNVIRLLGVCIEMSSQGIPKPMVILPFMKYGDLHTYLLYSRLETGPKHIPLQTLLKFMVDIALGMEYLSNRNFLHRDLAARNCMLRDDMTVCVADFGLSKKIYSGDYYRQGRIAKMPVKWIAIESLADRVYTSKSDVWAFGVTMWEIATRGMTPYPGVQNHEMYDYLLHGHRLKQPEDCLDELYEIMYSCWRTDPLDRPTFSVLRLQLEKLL
# Assay type: cell-based
# assay.setup: cell survival, 48 h, CellTiter-Glo; read-out: TEL-MERTK Ba/F3 IC50
Log scale reminder: IC50 in nM, then log10 taken.

Consider the following illustrative entries.
// lookup log10(IC50) for CC(C)n1cc(C(=O)Nc2ccc(Oc3ccnc4cnc(N5CCNCC5)cc34)cc2)c(=O)n(-c2ccc(F)cn2)c1=O [Example 12.4]
2.00

May I ask what log10(IC50) has been recorded for CN1CCC(NC(=O)c2cc3c(Nc4ccc(NC(=O)c5cccn(-c6ccccc6)c5=O)cc4)ccnc3cn2)CC1 [Example 3] ?
2.50

Item under review: CC(C)n1cc(C(=O)Nc2ccc(Oc3ccnc4cnc(C(=O)NC5CCN(C)CC5)cc34)cc2)c(=O)n(-c2ccc(F)cn2)c1=O [Example 9] . Reported log10(IC50)?
1.93

# log10(IC50) lookup, item CC(C)n1cc(C(=O)Nc2ccc(Oc3ccnc4cnc(C(=O)NCCN(C)C)cc34)cn2)c(=O)n(-c2ccc(F)cc2)c1=O [Example 27.3]
1.64

What does the data say about its log10(IC50)? Entry: O=C(Nc1ccc(Oc2ccnc3cnc(C4CCN(C5COC5)CC4)cc23)cn1)c1cccn(-c2ccc(F)cc2)c1=O [Example 16.3]
1.15

// for each molecule below, give its log10(IC50)
1. O=C(Nc1ccc(Oc2ccnc3cnc(N4CCNCC4)cc23)cc1)c1cn(C2CC2)c(=O)n(-c2ccc(F)cc2)c1=O [Example 36]
2. CC(C)n1cc(C(=O)Nc2ccc(Oc3ccnc4cnc(C5CCN(C)CC5)cc34)cn2)c(=O)c(-c2ccc(F)cc2)c1 [Example 23]

2.20
0.30

###

# system.under.test: human MERTK cytoplasmic domain (Homo sapiens)
# Construct: human MERTK cytoplasmic domain (Carna Biosciences 08-108); purchased Carna Biosciences 08-108
# Sequence (Q12866 527-999): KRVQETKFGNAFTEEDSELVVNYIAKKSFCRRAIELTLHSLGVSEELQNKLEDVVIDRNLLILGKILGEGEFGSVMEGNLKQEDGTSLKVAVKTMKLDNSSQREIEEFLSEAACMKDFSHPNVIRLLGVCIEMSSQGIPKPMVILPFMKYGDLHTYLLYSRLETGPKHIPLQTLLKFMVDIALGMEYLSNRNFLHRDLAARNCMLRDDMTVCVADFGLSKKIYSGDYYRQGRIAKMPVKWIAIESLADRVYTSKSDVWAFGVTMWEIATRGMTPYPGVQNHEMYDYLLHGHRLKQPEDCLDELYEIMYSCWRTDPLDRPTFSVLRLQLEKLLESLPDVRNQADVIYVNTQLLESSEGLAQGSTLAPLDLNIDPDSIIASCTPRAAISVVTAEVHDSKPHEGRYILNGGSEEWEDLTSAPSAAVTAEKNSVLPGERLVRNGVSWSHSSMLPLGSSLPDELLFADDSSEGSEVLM
# protocol.text: biochemical
# assay.setup: 30 uM ATP; read-out: Assay 1a Mer IC50 30 uM ATP
Threshold 60 nM: IC50 strictly smaller gives criterion met, otherwise criterion not met.

Past entries and their recorded results:
Criterion: IC50 strictly below 60 nM. Is it met by "CN1CCN(c2cc3c(Oc4ccc(NC(=O)c5cccn(-c6ccc(F)cc6)c5=O)cc4)ccnc3cn2)CC1" ?
criterion met

Lab note: confirm whether the reported IC50 for this molecule is below 60 nM, equality not counting. molecule: "Cc1nc(NC(=O)c2cccn(-c3ccc(F)cc3)c2=O)ccc1Oc1ccnc2cnc(C(=O)NC3CCN(C)CC3)cc12"
criterion met

Check if IC50 falls below 60 nM for "O=C(Nc1ccc(Nc2ccnc3cnc(C(=O)N4CCC4)cc23)cc1)c1cccn(-c2ccccc2)c1=O" .
criterion not met

Hello, I'm reviewing records and need to know if IC50 of "Cc1cc(NC(=O)c2cccn(-c3ccc(F)cc3)c2=O)ncc1Oc1ccnc2cnc(C(=O)NC3CCN(C)CC3)cc12" is below 60 nM. Could you check?
criterion met

In the record for O=C(Nc1ccc(Oc2ccnc3cnc(C4CCNC4)cc23)cn1)c1cccn(-c2ccc(F)cc2)c1=O (stereo not shown) , is IC50 less than 60 nM?
criterion met

Here's an entry: "CN1CCC(NC(=O)c2cc3c(Oc4cnc(NC(=O)c5cccn(-c6ccc(F)cc6)c5=O)nc4)ccnc3cn2)CC1" . Is its IC50 below 60 nM?
criterion not met

---
# check: IC50 < 60 nM for "CC(C)n1cc(C(=O)Nc2ccc(Oc3ccnc4cnc(C(=O)NC5CCN(C(=O)OC(C)(C)C)CC5)cc34)cn2)c(=O)n(-c2ccc(F)cc2)c1=O"
criterion met

###

Field: IC50. Provide a value for each of the compounds that follow.
# system.under.test: Ba/F3 Pro B-cell line expressing TEL-human Tyro3 fusion domain (Homo sapiens)
# Sequence (Q06418 518-790 limits assumed): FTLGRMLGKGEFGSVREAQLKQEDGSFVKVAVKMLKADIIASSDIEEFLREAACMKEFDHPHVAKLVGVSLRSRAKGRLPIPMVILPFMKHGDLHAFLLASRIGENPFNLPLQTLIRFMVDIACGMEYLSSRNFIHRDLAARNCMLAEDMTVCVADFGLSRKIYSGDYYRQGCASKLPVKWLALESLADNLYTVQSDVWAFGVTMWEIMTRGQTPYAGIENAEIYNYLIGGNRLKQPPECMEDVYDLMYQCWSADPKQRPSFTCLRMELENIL
# assay.setup: cell survival, 48 h, CellTiter-Glo
Numbers only, in nM.

Below is a list of compounds. For each, state its recorded IC50.
1. CN1CCC(NC(=O)c2cc3c(Oc4ccc(NC(=O)c5cn(C)cc(-c6ccc(F)cc6)c5=O)cc4)ccnc3cn2)CC1 [Example 37]
2. CN1CCC(NC(=O)c2cc3c(Oc4ccc(NC(=O)c5cccn(-c6ccc(F)cc6)c5=O)cc4)ccnc3cn2)CC1 [Example 8.1]
3. O=C(Nc1ccc(Oc2ccnc3cnc(N4CCNCC4)cc23)cc1)c1cccc(-c2ccc(F)cc2)[n+]1[O-] [Example 12.6]
4. O=C(Nc1ccc(Oc2ccnc3cnc(N4CCNCC4)cc23)cn1)c1cccn(-c2ccc(F)cc2)c1=O [Example 10]

[251, 48, 110, 148]

###

# system.under.test: Ba/F3 Pro B-cell line expressing TEL-human MERTK fusion domain (Homo sapiens)
# Format: cell-based
# assay.setup: cell survival, 48 h, CellTiter-Glo; read-out: TEL-MERTK Ba/F3 IC50
Provide the recorded pIC50 for the entries that follow.
Numbers only, as −log10 of the molar value.

Any idea what its pIC50 is? The molecule is CN1CCC(NC(=O)c2cc3c(Oc4ccc(NC(=O)c5cccn(-c6ccc(F)cc6)c5=O)nc4)ccnc3cn2)CC1 [Example 11]
7.28

Look up pIC50 for the entries below, preserving their order.
1. O=C(Nc1ccc(Oc2ccnc3cnc(C4CCNCC4)cc23)cn1)c1cccn(-c2ccc(F)cc2)c1=O [Example 21.1]
2. CC(C)n1cc(C(=O)Nc2ccc(Oc3ccnc4cnc(C(=O)N[C@H]5CCN(C)C5)cc34)cn2)c(=O)n(-c2ccc(F)cc2)c1=O [Example 27.4]
3. CC(C)n1cc(C(=O)Nc2ccc(Oc3ccnc4cnc(C(=O)NC5CCN(C)CC5)cc34)cc2)c(=O)c(-c2ccc(F)cc2)c1 [Example 37.1]

1: 7.46; 2: 7.36; 3: 8.10

Requested read-out: pIC50. Entry: CC(C)n1cc(C(=O)Nc2ccc(Oc3ccnc4cnc(N5CCNCC5)cc34)cc2)c(=O)c(-c2ccc(F)cc2)c1 [Example 13]
7.51

###

# system.under.test: recombinant human AXL expressed in live cells (HEK, AXL-Nanoluc fusion vector) (Homo sapiens)
# Construct: host or cells: HEK
# Sequence (P30530 26-894): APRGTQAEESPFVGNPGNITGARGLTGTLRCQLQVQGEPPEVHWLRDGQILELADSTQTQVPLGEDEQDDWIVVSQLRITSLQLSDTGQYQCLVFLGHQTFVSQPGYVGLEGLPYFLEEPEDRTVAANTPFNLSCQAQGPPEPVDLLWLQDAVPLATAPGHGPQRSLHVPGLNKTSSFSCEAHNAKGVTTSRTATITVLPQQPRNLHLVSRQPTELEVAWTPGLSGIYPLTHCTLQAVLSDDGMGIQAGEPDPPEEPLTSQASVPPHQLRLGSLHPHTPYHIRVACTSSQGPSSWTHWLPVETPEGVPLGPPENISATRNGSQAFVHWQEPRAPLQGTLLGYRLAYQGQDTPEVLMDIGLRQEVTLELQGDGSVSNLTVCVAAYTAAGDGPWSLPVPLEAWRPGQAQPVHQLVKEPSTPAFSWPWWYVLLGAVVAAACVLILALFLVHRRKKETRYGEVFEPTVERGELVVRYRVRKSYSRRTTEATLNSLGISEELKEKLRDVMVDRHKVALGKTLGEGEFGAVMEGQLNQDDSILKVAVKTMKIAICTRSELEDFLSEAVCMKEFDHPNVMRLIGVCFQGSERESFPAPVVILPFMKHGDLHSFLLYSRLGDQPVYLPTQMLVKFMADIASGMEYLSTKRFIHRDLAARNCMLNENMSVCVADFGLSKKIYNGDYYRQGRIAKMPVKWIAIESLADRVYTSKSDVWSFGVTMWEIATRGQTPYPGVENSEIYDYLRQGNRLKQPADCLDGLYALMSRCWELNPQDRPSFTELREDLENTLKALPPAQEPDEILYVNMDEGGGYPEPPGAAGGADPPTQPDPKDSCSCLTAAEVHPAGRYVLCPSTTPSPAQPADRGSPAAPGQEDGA
# protocol.text: Assay 3 AXL cellular target engagement (NanoBRET TE) assay
# Assay type: cell-based
# Description: Assay 3—AXL Cellular Target Engagement (TE) Assay Compound affinities for recombinant human AXL expressed in live cells were assessed via the Promega NanoBRET TE assay technology. […] The plate was then read on a BMG Pherastar FSX using a NanoBRET filter to record donor emission at 450 nm and acceptor fluorophore emission at 610 nm. From this the BRET ratio (acceptor 610 nm/donor 450 nm) for each data point was calculated.
metric: pIC50
One number for each entry, as −log10 of the molar value.

The following compounds have reported results that may help.
Report pIC50 for CNC(=O)c1cc2c(Nc3ccc(NC(=O)c4cccn(-c5ccccc5)c4=O)cc3)ccnc2cn1 [Example 5.3] please.
7.33

Can you share its pIC50? I mean this compound: CN1CCC(NC(=O)c2cc3c(Oc4ccc(NC(=O)c5cccn(-c6ccccc6)c5=O)nc4)ccnc3cn2)CC1 [Example 28.2]
7.08

Using the record for Cn1cc(C(=O)Nc2ccc(Oc3ccnc4cnc(N5CCNCC5)cc34)cc2)c(=O)c(-c2ccc(F)cc2)c1 [Example 13.1] , report its pIC50.
7.80

For the compound shown here, O=C(Nc1ccc(Oc2ccnc3cnc(N4CCNCC4)cc23)cc1)c1cn(C2CC2)c(=O)n(-c2ccc(F)cc2)c1=O [Example 36] , give the reported pIC50.
7.59

Which pIC50 reading was recorded for the compound O=C(Nc1ccc(Oc2ccnc3cnc(N4CCNCC4)cc23)cc1)c1cccn(-c2ccc(F)cc2)c1=O [Example 12.2] ?
7.54

The following compounds each have a reported value; give each one's pIC50.
1. O=C(Nc1ccc(Oc2ccnc3cnc(N4CCNCC4)cc23)c(F)c1)c1cccn(-c2ccccc2)c1=O [Example 31]
2. O=C(Nc1ccc(Nc2ccnc3cnc(N4CCC(O)CC4)cc23)cc1)c1cccn(-c2ccccc2)c1=O [Example 2]

[7.46, 6.76]

###

Consider the following compounds; for each one, report its pIC50.
# system.under.test: human AXL cytoplasmic domain (Homo sapiens)
# Construct: human AXL cytoplasmic domain (Thermo Fisher A31515); purchased Thermo Fisher A31515
# Sequence (P30530 473-894 limits assumed): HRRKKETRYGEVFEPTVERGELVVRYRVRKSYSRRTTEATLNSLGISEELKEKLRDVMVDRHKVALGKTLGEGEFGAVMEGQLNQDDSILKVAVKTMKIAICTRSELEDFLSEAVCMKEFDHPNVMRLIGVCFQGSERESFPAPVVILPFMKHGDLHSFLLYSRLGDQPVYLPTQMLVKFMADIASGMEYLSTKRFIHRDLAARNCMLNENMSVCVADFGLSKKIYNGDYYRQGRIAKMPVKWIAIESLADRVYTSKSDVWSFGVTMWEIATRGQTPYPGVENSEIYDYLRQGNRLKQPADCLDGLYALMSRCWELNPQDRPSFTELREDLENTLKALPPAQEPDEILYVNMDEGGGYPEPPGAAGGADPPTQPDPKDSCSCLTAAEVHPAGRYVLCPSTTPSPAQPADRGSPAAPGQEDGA
# protocol.text: Assay 1b AXL HTRF KinEASE-TK assay
# Type: biochemical
Give bare numbers, as −log10 of the molar value.

Solved cases below.
Suppose we examine the compound "O=C(Nc1ccc(Oc2ccnc3cnc(C4CCNCC4)cc23)cn1)c1cccn(-c2ccc(F)cc2)c1=O" ; what pIC50 value has been reported?
7.34

Recorded pIC50 for "CN1CCN(c2cc3c(Oc4ccc(NC(=O)c5cccn(-c6ccc(F)cc6)c5=O)cc4)ccnc3cn2)CC1" , please?
7.22

Find the recorded pIC50 belonging to "O=C(Nc1ccc(Oc2ccnc3cnc(N4CCNCC4)cc23)cc1)c1cccc(-c2ccc(F)cc2)[n+]1[O-]" and report it.
7.51

Any idea what its pIC50 is? The compound is "CN1CCC(c2cc3c(Oc4ccc(NC(=O)c5cccn(-c6ccc(F)cc6)c5=O)nc4)ccnc3cn2)CC1"
6.58

Which measured pIC50 value corresponds to "CC(C)n1cc(C(=O)Nc2ccc(Oc3ccnc4cnc(N5CCNCC5)cc34)cc2)c(=O)n(-c2ccc(F)cn2)c1=O" ?
8.22

Would you mind telling me what pIC50 value was observed for "CN1CCC(NC(=O)c2cc3c(Oc4ccc(NC(=O)c5cccn(-c6ccc(F)cc6)c5=O)cc4)ccnc3cn2)CC1" ?
7.55

More entries:
So what does the record say about pIC50 for "CC(C)n1cc(C(=O)Nc2ccc(Oc3ccnc4cnc(N5CCN(C6COC6)CC5)cc34)cn2)c(=O)n(-c2ccc(F)cc2)c1=O" ?
8.30
